- Test system: NCI-H1299
- Protocol: Antiproliferative activity against human NCI-H1299 cells assessed as cell growth inhibition incubated for 48 hrs by MTT assay
- Assay type: functional, cell-based
- Test Settings: NCI-H1299, 48 h
Property Label: IC50 (nM)
Dear colleague, please return just the value in nM, with no unit written.

Query: Param readout = IC50; param system = NCI-H1299; param query = COc1ccc(-c2cc(-c3ccc(OC)c(OC)c3OC)c3nc[nH]c3c2)cc1N ; response: value
Response: 63

###

- Protocol: Cytotoxicity against human MCF-10A cells assessed as inhibition of cell growth at 10 nM incubated for 48 hrs by MTT assay relative to control
- Type: toxicity, cell-based
Property Label: inhibition at 48 h, 0.01 µM (%)
Dear colleague, please return just the value in %, with no unit written.

Query: Can you look up the measured inhibition at 48 h, 0.01 µM of COc1ccc(-c2cc(-c3ccc(OC)c(OC)c3OC)c3nc[nH]c3c2)cc1N for me?
Response: 20

###

- Protocol: Metabolic stability in mouse liver microsome assessed as half life measured upto 50 mins by LC-MS/MS analysis
- Format: ADME
- Test Settings: liver microsomes
Property Label: half-life (min)
Dear colleague, please return just the value in min, with no unit written.

O=C(c1ccc(F)cc1)C1CCN(CCn2c(=O)[nH]c3ccccc3c2=O)CC1 [KETANSERIN]	13

Now take the following compound into account.
Query: Can you look up the measured half-life of COc1ccc(-c2cc(-c3ccc(OC)c(OC)c3OC)c3nc[nH]c3c2)cc1N for me?
Response: 63

###

- Test system: A549
- Protocol: Antiproliferative activity against human A549 cells assessed as cell growth inhibition incubated for 48 hrs by MTT assay
- Test Settings: A549, 48 h
Property Label: IC50 (nM)
Dear colleague, please return just the value in nM, with no unit written.

Query: Can you look up the measured IC50 of COc1ccc(-c2cc(-c3cc(OC)c(OC)c(OC)c3)c3nc[nH]c3c2)cc1 for me?
Response: 780

Query: Do the same for COc1ccc(-c2nc3c(c(Nc4cc(OC)c(OC)c(OC)c4)n2)CCCC3)cc1F please
Response: 10400

Query: Do the same for COc1ccc(-c2cc(-c3cc(OC)c(OC)c(OC)c3)c3nc[nH]c3c2)cc1CO please
Response: 470

Query: Do the same for COc1ccc2nc(-c3ccc(OC)c(F)c3)nc(Nc3cc(OC)c(OC)c(OC)c3)c2c1 please
Response: 2040

Query: Do the same for COc1ccc(-c2cc(-c3cc(OC)c(OC)c(OC)c3)c3[nH]c(=O)[nH]c3c2)cc1F please
Response: 1270

Query: Do the same for COc1ccc(-c2cc(-c3cc(OC)c(OC)c(OC)c3)c3nc(C)[nH]c3c2)cc1O please
Response: 530

###

Listed here: items and their measured half-life.
- Protocol: Metabolic stability in human liver microsome assessed as half life measured upto 50 mins by LC-MS/MS analysis
- Type: ADME
- Test Settings: liver microsomes
Dear colleague, please return just the value in min, with no unit written.

Solved cases below.
O=C(c1ccc(F)cc1)C1CCN(CCn2c(=O)[nH]c3ccccc3c2=O)CC1 [KETANSERIN]	37
COc1ccc(-c2cc(-c3ccc(OC)c(OC)c3OC)c3nc[nH]c3c2)cc1N	75

Now take the following compound into account.
Query: Can you look up the measured half-life of COc1ccc(/C=C\c2cc(OC)c(OC)c(OC)c2)cc1O [COMBRETASTATIN A4] for me?
Response: 14

###

Listed here: items and their measured pIC50.
- Test system: A549
- Protocol: Antiproliferative activity against human A549 cells assessed as cell growth inhibition incubated for 48 hrs by MTT assay
- Test Settings: A549, 48 h
In simple prose, pIC50 is minus the logarithm base ten of a concentration in moles per litre.

Solved cases below.
COc1ccc(-c2cc(-c3cc(OC)c(OC)c(OC)c3)c3nc[nH]c3c2)cc1F	6.96
COc1cc(-c2cc(Br)cc3[nH]cnc23)cc(OC)c1OC	4.54
COc1ccc(-c2nc3c(c(Nc4cc(OC)c(OC)c(OC)c4)n2)CCC3)cc1F	4.64

Query: Can you look up the measured pIC50 of COc1ccc(-c2cc(Oc3cc(OC)c(OC)c(OC)c3)c3nc[nH]c3c2)cc1F for me?
Response: 5.29

Query: Do the same for COc1cc2c(c(OC)c1OC)-c1ccc(OC)c(=O)cc1[C@@H](NC(C)=O)CC2 [COLCHICINE] please
Response: 7.66

Query: Do the same for CC(=O)O[C@H]1C(=O)[C@@]2(C)[C@H]([C@H](OC(=O)c3ccccc3)[C@]3(O)C[C@H](OC(=O)[C@H](O)[C@@H](NC(=O)c4ccccc4)c4ccccc4)C(C)=C1C3(C)C)[C@]1(OC(C)=O)CO[C@@H]1C[C@@H]2O [PACLITAXEL] please
Response: 8.70

###

- Protocol: Cytotoxicity against human MCF-10A cells assessed as inhibition of cell growth at 2 nM incubated for 48 hrs by MTT assay relative to control
- Format: toxicity, cell-based
Property Label: inhibition at 48 h, 0.002 µM (%)
Dear colleague, please return just the value in %, with no unit written.

Query: Can you look up the measured inhibition at 48 h, 0.002 µM of COc1ccc(-c2cc(-c3ccc(OC)c(OC)c3OC)c3nc[nH]c3c2)cc1N for me?
Response: 1

###

- Protocol: Metabolic stability in mouse liver microsome assessed as intrinsic clearance measured upto 50 mins by LC-MS/MS analysis
- Format: ADME
- Test Settings: liver microsomes, read-out: CLH
Listed here: items and their measured CLint scaled.
Dear colleague, please return just the value in mL/min/kg, with no unit written.

O=C(c1ccc(F)cc1)C1CCN(CCn2c(=O)[nH]c3ccccc3c2=O)CC1	419

Now take the following molecule into account.
Query: Can you look up the measured CLint scaled of COc1ccc(-c2cc(-c3ccc(OC)c(OC)c3OC)c3nc[nH]c3c2)cc1N for me?
Response: 87

###

- Protocol: Aqueous solubility of the compound […] at pH 7.4 by HPLC analysis
- Assay type: physicochemical
Property Label: solubility (µg/mL)
Dear colleague, please return just the value in µg/mL, with no unit written.

COc1ccc(/C=C\c2cc(OC)c(OC)c(OC)c2)cc1O	1

Now take the following compound into account.
Query: Can you look up the measured solubility of COc1ccc(-c2cc(-c3ccc(OC)c(OC)c3OC)c3nc[nH]c3c2)cc1N for me?
Response: 20.8

###

- Protocol: Cytotoxicity against human MCF-10A cells assessed as inhibition of cell growth at 100 nM incubated for 48 hrs by MTT assay relative to control
- Assay type: toxicity, cell-based
Property Label: inhibition at 48 h, 0.1 µM

Query: Can you look up the measured inhibition at 48 h, 0.1 µM of COc1ccc(-c2cc(-c3ccc(OC)c(OC)c3OC)c3nc[nH]c3c2)cc1N for me?
Response: 47%

###

- Protocol: Metabolic stability in human liver microsome assessed as intrinsic clearance measured upto 50 mins by LC-MS/MS analysis
- Assay type: ADME
- Test Settings: liver microsomes, read-out: CLH
Property Label: CLint scaled
Please answer using the number first and the unit second.

Solved cases below.
O=C(c1ccc(F)cc1)C1CCN(CCn2c(=O)[nH]c3ccccc3c2=O)CC1	47 mL/min/kg
COc1ccc(-c2cc(-c3ccc(OC)c(OC)c3OC)c3nc[nH]c3c2)cc1N	23 mL/min/kg

Now take the following molecule into account.
Query: Can you look up the measured CLint scaled of COc1ccc(/C=C\c2cc(OC)c(OC)c(OC)c2)cc1O for me?
Response: 90 mL/min/kg

###

Listed here: items and their measured IC50.
- Tested on: A549
- Protocol: Antiproliferative activity against human A549 cells assessed as cell growth inhibition incubated for 48 hrs by MTT assay
- Test Settings: A549, 48 h
Dear colleague, please return just the value in nM, with no unit written.

Solved cases below.
COc1ccc(-c2cc(-c3ccc(OC)c(OC)c3OC)c3nc[nH]c3c2)cc1N	23
CC(=O)O[C@@]12CO[C@@H]1C[C@H](O)[C@@]1(C)C(=O)[C@H](O)C3=C(C)[C@@H](OC(=O)[C@H](O)[C@@H](NC(=O)OC(C)(C)C)c4ccccc4)C[C@@](O)([C@@H](OC(=O)c4ccccc4)[C@H]21)C3(C)C [DOCETAXEL ANHYDROUS]	1
COc1cc(-c2cc(-c3ccc(C)c(N)c3)cc3[nH]cnc23)cc(OC)c1OC	240
COc1cc(-c2cc(-c3ccc(C)c(O)c3)cc3[nH]cnc23)cc(OC)c1OC	190
COc1cc(-c2cc(-c3ccc(C)cc3)cc3[nH]cnc23)cc(OC)c1OC	680

Query: Can you look up the measured IC50 of COc1ccc(-c2cc(-c3cc(OC)c(OC)c(OC)c3)c3nc[nH]c3c2)cc1N for me?
Response: 33

Query: Do the same for COc1cc(-c2cc(-c3ccc(C4CC4)cc3)cc3[nH]cnc23)cc(OC)c1OC please
Response: 4920

Query: Do the same for COc1ccc(-c2nc(Nc3cc(OC)c(OC)c(OC)c3)c3ccccc3n2)cc1F please
Response: 10300

Query: Do the same for CCOc1ccc(-c2cc(-c3cc(OC)c(OC)c(OC)c3)c3nc[nH]c3c2)cc1 please
Response: 1030

Query: Do the same for COc1ccc(-c2cc(-c3cc(OC)c(OC)c(OC)c3)c3[nH]c(=O)[nH]c3c2)cc1O please
Response: 290

Query: Do the same for COc1ccc(-c2cc(-c3cc(OC)c(OC)c(OC)c3)c3nc[nH]c3c2)cc1O please
Response: 59

Query: Do the same for COc1ccc(-c2cc(Oc3cc(OC)c(OC)c(OC)c3)c3ncn(C)c3c2)cc1F please
Response: 200

Query: Do the same for COc1ccc(-c2cc(-c3ccccc3OC)c3nc[nH]c3c2)cc1N please
Response: 140

Query: Do the same for COc1ccc(-c2nc(Nc3cc(OC)c(OC)c(OC)c3)c3ncn(C)c3n2)cc1F please
Response: 1210

Query: Do the same for COc1cc(-c2cc(-c3ccc(Cl)c(N)c3)cc3[nH]cnc23)cc(OC)c1OC please
Response: 410

Query: Do the same for CC[C@]1(O)C[C@H]2CN(CCc3c([nH]c4ccccc34)[C@@](C(=O)OC)(c3cc4c(cc3OC)N(C=O)[C@H]3[C@@](O)(C(=O)OC)[C@H](OC(C)=O)[C@]5(CC)C=CCN6CC[C@]43[C@@H]65)C2)C1 please
Response: 21

Query: Do the same for COc1ccc(-c2nc(N(C)c3cc(OC)c(OC)c(OC)c3)c3ncn(C)c3n2)cc1F please
Response: 9910
